Biological target: UniProt:P35354
Sequence (P35354 18-604): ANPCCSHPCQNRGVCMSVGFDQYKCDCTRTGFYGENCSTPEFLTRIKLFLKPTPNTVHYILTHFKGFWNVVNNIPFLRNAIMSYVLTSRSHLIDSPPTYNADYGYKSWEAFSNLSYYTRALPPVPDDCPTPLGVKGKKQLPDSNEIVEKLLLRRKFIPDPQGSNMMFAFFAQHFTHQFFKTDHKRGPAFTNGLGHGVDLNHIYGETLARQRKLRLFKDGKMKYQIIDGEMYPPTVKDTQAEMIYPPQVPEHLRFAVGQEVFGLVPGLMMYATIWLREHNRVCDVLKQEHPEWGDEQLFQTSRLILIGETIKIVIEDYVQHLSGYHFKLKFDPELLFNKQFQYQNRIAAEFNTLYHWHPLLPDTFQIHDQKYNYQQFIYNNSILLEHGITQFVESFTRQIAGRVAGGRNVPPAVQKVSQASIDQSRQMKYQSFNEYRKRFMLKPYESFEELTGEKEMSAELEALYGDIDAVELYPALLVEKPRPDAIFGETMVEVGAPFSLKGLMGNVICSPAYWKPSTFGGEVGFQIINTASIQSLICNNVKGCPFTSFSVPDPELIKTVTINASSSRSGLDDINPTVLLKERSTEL
Assay: Cyclooxygenase-2 inhibitory activity
Assay type: biochemical
Settings: COX-2; read-out: IC50
Description: An enzyme solution with a concentration of 300 U/ml was prepared and activated using ice for 5 min with a 50 µL cofactor solution containing glutathione (0.9 mM), TMPD (N,N,N,N_tetramethyl-p-phenylenediaminedihydrochloride) (0.24 mM), and hematin (1 mM) in Tris buffer (0.1 M) with pH 8. […] The absorbance of the samples was measured at 570 nm after the samples had been incubated for 5 min. […] The percent inhibition was calculated from the absorbance value per unit time.
MEASURED_METRIC: pIC50
Reminder that pIC50 is minus the log10 of a molar concentration.

Respond only with pIC50 recorded for O=C(CCc1ccc(O)cc1)c1c(O)cc(O)cc1O [Compound 2, 2-4-4-6-tetrahydroxy-dihydrochalcone]
2.54
